Test system: E. coli
Assay: MIC and MBC determinations in vitro, E. coli
Format: cell-based
Settings: Escherichia coli; E. coli clinical isolate, solid medium 24 h
Hi! Just check whether MBC is below 20 µg/mL. Below gives yes (1), equal or above gives no (0).

Does the reported MBC of CC(=O)NC1(c2c(F)cc3c(=O)c(C(=O)O)cn4c3c2OCC4C)CC1 (stereo not drawn) [Compound 2-g] stay below 20 µg/mL?
no (0)

Does the reported MBC of COc1c(N2CCCC(N(C)C(=O)CN)C2)c(F)cc2c(=O)c(C(=O)O)cn(C3CC3)c12 (stereo not drawn) [Compound 20-e] stay below 20 µg/mL?
no (0)

Does the reported MBC of COc1c(N2CC3CCCN(C(C)=O)C3C2)c(F)cc2c(=O)c(C(=O)O)cn(C3CC3)c12 (stereo not drawn) [Compound 2-f] stay below 20 µg/mL?
yes (1)

Does the reported MBC of COc1c(N2CCCC(N(C)C)C2)c(F)cc2c(=O)c(C(=O)O)cn(C3CC3)c12 (stereo not drawn) [Compound 21-e] stay below 20 µg/mL?
yes (1)

Does the reported MBC of CCCCCCCCCC(=O)N(C)C1CCCN(c2c(F)cc3c(=O)c(C(=O)O)cn(C4CC4)c3c2OC)C1 (stereo not drawn) [Compound 10-e] stay below 20 µg/mL?
no (0)

Does the reported MBC of CCCCCCCC(=O)N(C)C1CCCN(c2c(F)cc3c(=O)c(C(=O)O)cn(C4CC4)c3c2OC)C1 (stereo not drawn) [Compound 8-e] stay below 20 µg/mL?
no (0)

Does the reported MBC of C[C@H]1COc2c(C3(N)CC3)c(F)cc3c(=O)c(C(=O)O)cn1c23 [Compound 1g, pazufloxacin, reference compound] stay below 20 µg/mL?
yes (1)

Does the reported MBC of COc1c(N2CCCC(N(C)C(=O)C3CCCC3)C2)c(F)cc2c(=O)c(C(=O)O)cn(C3CC3)c12 (stereo not drawn) [Compound 16-e] stay below 20 µg/mL?
no (0)

Does the reported MBC of COc1c(N2CCCC(N(C)C(C)=O)C2)c(F)cc2c(=O)c(C(=O)O)cn(C3CC3)c12 (stereo not drawn) [Compound 2-e] stay below 20 µg/mL?
yes (1)

Does the reported MBC of CCC(=O)N(C)C1CCCN(c2c(F)cc3c(=O)c(C(=O)O)cn(C4CC4)c3c2OC)C1 (stereo not drawn) [Compound 3-e] stay below 20 µg/mL?
yes (1)

Does the reported MBC of COc1c(N2CC3CCCN(C(=O)Cn4cncn4)C3C2)c(F)cc2c(=O)c(C(=O)O)cn(C3CC3)c12 (stereo not drawn) [Compound f-1] stay below 20 µg/mL?
yes (1)

Does the reported MBC of CNC1CCCN(c2c(F)cc3c(=O)c(C(=O)O)cn(C4CC4)c3c2OC)C1 (stereo not drawn) [Compound 1e, balofloxacin] stay below 20 µg/mL?
yes (1)

---

Tested on: MRSA
Assay: MIC and MBC determinations in vitro, MRSA
Type: cell-based
Conditions: Staphylococcus aureus, MRSA, 24 h, MRSA clinical isolate, solid medium 24 h; read-out: MBC
For each of the molecules below, state its MBC.
Please give a number only; it is taken to be in µg/mL.

State the measured MBC (MRSA) of COc1c(N2CCCC(N(C)C(=O)Cn3cncn3)C2)c(F)cc2c(=O)c(C(=O)O)cn(C3CC3)c12 (stereo not shown) [Compound e-1]
0.312

State the measured MBC (MRSA) of COc1c(N2CC3CCCN(C(=O)Cn4cncn4)C3C2)c(F)cc2c(=O)c(C(=O)O)cn(C3CC3)c12 (stereo not shown) [Compound f-1]
2.5

State the measured MBC (MRSA) of COc1c(N2CCCC(N(C)C(=O)C3CCCO3)C2)c(F)cc2c(=O)c(C(=O)O)cn(C3CC3)c12 (stereo not shown) [Compound 14-e]
0.156

State the measured MBC (MRSA) of COc1c(N2CCCC(N(C)C(=O)CN)C2)c(F)cc2c(=O)c(C(=O)O)cn(C3CC3)c12 (stereo not shown) [Compound 20-e]
50

Numbers sourced from paper PMC9437215.
